Assay: total protein half-life in vivo (active degradation + dilution); higher = more stable protein
Conditions: E. coli NCM3722 delta-smpB; growth: N-lim chemostat; doubling time 6 h
ASSAY_READOUT: total protein half-life in vivo (h)
Answer format: numeric, h implied, no suffix.

MTNPQFAGHPFGTTVTAETLRNTFAPLTQWEDKYRQLIMLGKQLPALPDELKAQAKEIAGCENRVWLGYTVAENGKMHFFGDSEGRIVRGLLAVLLTAVEGKTAAELQAQSPLALFDELGLRAQLSASRSQGLNALSEAIIAATKQV [P0AGF2] ... 4.87
MQKFDTRTFQGLILTLQDYWARQGCTIVQPLDMEVGAGTSHPMTCLRELGPEPMAAAYVQPSRRPTDGRYGENPNRLQHYYQFQVVIKPSPDNIQELYLGSLKELGMDPTIHDIRFVEDNWENPTLGAWGLGWEVWLNGMEVTQFTYFQQVGGLECKPVTGEITYGLERLAMYIQGVDSVYDLVWSDGPLGKTTYGDVFHQNEVEQSTYNFEYADVDFLFTCFEQYEKEAQQLLALENPLPLPAYERILKAAHSFNLLDARKAISVTERQRYILRIRTLTKAVAEAYYASREALGFPMCNKDK ... 4.88

Next up:
Query (sequence): MGAELVKWVKSHKIDAHIITFVAKMPYIDSIKLLEAGAKGCVWKTSHPAKLNRAIDSISNGYTYFDSVHMDCEKISSRYSSDNQLTNRESEILQLIADGKTNKEIANFLQLSRKTVETHRLNIMKKLDVHSGIELIKTALRMGVCTI ; field requested: total protein half-life in vivo
5.08

###

Test: total protein half-life in vivo (active degradation + dilution); higher = more stable protein
Settings: E. coli NCM3722 delta-clpP delta-lon delta-hslV; growth: N-lim chemostat; doubling time 6 h
ASSAY_READOUT: total protein half-life in vivo (h)
Answer format: numeric, h implied, no suffix.

Some sequences with recorded total protein half-life in vivo:
MFHCPLCQHAAHARTSRYITDTTKERYHQCQNVNCSATFITYESVQRYIVKPGEVHVVRPHPLPSGQQIMWM ... 5.58
MIVTIVGWLVLFVFLPNLMIIGTSFLTRDDASFVKMVFTLDNYTRLLDPLYFEVLLHSLNMALIATLACLVLGYPFAWFLAKLPHKVRPLLLFLLIVPFWTNSLIRIYGLKIFLSTKGYLNEFLLWLGVIDTPIRIMFTPSAVIIGLVYILLPFMVMPLYSSIEKLDKPLLEAARDLGASKLQTFIRIIIPLTMPGIIAGCLLVMLPAMGLFYVSDLMGGAKNLLIGNVIKVQFLNIRDWPFGAATSITLTIVMGLMLLVYWRASRLLNKKVELE [P0AFK4] ... 4.04
MNYSLKQLKVFVTVAQEKSFSRAGERIGLSQSAVSHSVKELENHTGVRLLDRTTREVVLTDAGQQLALRLERLLDELNSTLRDTGRMGQQLSGKVRVAASQTISAHLIPQCIAESHRRYPDIQFVLHDRPQQWVMESIRQGDVDFGIVIDPGPVGDLQCEAILSEPFFLLCHRDSALAVEDYVPWQALQGAKLVLQDYASGSRPLIDAALARNGIQANIVQEIGHPATLFPMVAAGIGISILPALALPLPEGSPLVVKRITPVVERQLMLVRRKNRSLSTAAEALWDVVRDQGNALMAGREGDPLYQI [P0ACR7] ... 6.06

Next up:
Query (sequence): MKRTKSIRHASFRKNWSARHLTPVALAVATVFMLAGCEKSDETVSLYQNADDCSAANPGKSAECTTAYNNALKEAERTAPKYATREDCVAEFGEGQCQQAPAQAGMAPENQAQAQQSSGSFWMPLMAGYMMGRLMGGGAGFAQQPLFSSKNPASPAYGKYTDATGKNYGAAQPGRTMTVPKTAMAPKPATTTTVTRGGFGESVAKQSTMQRSATGTSSRSMGG [P0ADT2] ; field requested: total protein half-life in vivo
3.82
